# assay.system: human GPR40 (Homo sapiens)
# Construct: expressed in transfected cells
# Sequence (O14842 whole entry): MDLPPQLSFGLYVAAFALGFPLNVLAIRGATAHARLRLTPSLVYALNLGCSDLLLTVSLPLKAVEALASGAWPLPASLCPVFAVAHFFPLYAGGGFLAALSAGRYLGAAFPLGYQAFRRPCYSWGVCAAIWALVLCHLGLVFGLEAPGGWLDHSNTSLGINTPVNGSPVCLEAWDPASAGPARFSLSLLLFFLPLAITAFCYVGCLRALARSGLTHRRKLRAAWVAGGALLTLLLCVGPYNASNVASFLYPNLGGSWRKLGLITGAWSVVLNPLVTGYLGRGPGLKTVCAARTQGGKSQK
# test.description: Evaluation of human GPR40 agonist activity with increase in intracellular Ca2+ concentration as an index (FLIPR)
# Type: cell-based
# test.context: test compound at final concentration of 1 μM; CHO(dhfr−) cells stably expressing human GPR40; 100% = activity of 10 μM of compound of WO 2015/020184 Example 153, 0% = DMSO
API: label(entry) gives Condition met if the entry's activity (human GPR40 agonist activity) is strictly smaller than 60%; on equality or larger values it gives Condition not met.

Past entries and their recorded results:
compound="COc1ccc(C2CCN(CC(F)(F)F)CC2)c(N2CCC(COc3cc4c(cn3)OCCC4CC(=O)O)CC2)c1 (stereo not shown) [Example 28]" category="Condition met"
compound="COc1ccc(C2CCN(CC(F)(F)F)CC2)c(N2CCC(COc3cc4c(cn3)OCCC4CC(=O)O)CC2)c1 (stereo not shown) [Example 36]" category="Condition not met"
compound="COc1cc(N2CCC(COc3cc4c(cn3)CCC4CC(=O)O)CC2)c(OCC(F)(F)C(F)(F)F)cn1 (stereo not shown)" category="Condition not met"

Problem: For the compound COc1ccc(C2CCN(CC(F)(F)F)CC2)c(N2CCC(COc3cc4c(cn3)CCC4CC(=O)O)CC2)c1 (stereo not shown) [Example 29] , is activity (human GPR40 agonist activity) under 60%? Condition not met

Problem: For the compound COc1ccc(CCC(F)(F)F)c(N2CCC(COc3cc4c(cn3)OCCC4CC(=O)O)CC2)c1 (stereo not shown) [Example 8] , is activity (human GPR40 agonist activity) under 60%? Condition not met

Problem: For the compound COc1cc(N2CCC(COc3cc4c(cn3)OCCC4CC(=O)O)CC2)c(OCC(F)(F)C(F)(F)F)cn1 (stereo not shown) [Example 17] , is activity (human GPR40 agonist activity) under 60%? Condition met

Problem: For the compound COc1ccc(C2CCN(CC(F)(F)F)CC2)c(N2CCC(COc3cc4c(cn3)CCC4CC(=O)O)CC2)c1 (stereo not shown) [Example 10] , is activity (human GPR40 agonist activity) under 60%? Condition not met
